Listing of recorded Mean % WT Binding by entry.
Biological target: human CD33 S351A (human, UniProt P20138 18-364)
Sequence (P20138 18-364 S351A limits assumed): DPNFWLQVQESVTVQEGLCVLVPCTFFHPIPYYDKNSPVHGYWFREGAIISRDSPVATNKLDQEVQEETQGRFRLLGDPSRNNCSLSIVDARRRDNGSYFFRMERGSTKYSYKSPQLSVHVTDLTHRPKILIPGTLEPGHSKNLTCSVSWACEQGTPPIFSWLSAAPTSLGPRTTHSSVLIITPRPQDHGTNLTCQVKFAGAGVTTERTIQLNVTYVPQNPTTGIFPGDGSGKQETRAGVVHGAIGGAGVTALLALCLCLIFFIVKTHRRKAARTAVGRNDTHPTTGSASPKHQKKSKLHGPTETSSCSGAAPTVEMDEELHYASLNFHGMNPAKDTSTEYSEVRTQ
Test: flow cytometry, alanine scan

INSERT INTO measurements (binder, propertylabel, value) VALUES
  ('Refmab #3 (antibody, V domains shown, The alanine scan used IgG or Fab) VH: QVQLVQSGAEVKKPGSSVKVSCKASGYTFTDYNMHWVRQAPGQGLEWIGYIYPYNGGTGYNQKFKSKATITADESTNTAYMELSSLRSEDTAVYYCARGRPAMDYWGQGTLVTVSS VL: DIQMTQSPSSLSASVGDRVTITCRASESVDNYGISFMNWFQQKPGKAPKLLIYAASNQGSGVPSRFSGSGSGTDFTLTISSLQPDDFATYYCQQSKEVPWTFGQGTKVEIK', 'Mean % WT Binding', '91.8 % of WT');

The value of Mean % WT Binding measured for the binder Refmab #4 (antibody, V domains shown, The alanine scan used IgG or Fab) VH: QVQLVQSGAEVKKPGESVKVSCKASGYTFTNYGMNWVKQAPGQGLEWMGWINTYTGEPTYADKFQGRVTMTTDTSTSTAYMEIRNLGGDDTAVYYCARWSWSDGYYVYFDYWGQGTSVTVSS VL: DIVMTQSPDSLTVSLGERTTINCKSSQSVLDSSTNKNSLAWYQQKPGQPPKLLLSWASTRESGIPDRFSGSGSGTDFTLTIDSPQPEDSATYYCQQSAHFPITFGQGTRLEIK turned out to be 114 % of WT

The value of Mean % WT Binding measured for the binder Refmab #2 (antibody, V domains shown, The alanine scan used IgG or Fab) VH: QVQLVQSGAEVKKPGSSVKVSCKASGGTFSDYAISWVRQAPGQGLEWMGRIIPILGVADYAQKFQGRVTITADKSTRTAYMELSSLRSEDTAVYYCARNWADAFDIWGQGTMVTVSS VL: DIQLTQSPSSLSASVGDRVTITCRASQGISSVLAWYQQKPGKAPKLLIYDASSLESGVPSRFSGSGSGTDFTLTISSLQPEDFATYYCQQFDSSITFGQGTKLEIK turned out to be 109 % of WT

The value of Mean % WT Binding measured for the binder Refmab #1 (antibody, V domains shown, The alanine scan used IgG or Fab; also called hP67.6) VH: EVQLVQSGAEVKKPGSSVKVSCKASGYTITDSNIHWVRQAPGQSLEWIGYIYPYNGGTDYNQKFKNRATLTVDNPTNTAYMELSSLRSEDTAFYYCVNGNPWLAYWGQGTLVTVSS VL: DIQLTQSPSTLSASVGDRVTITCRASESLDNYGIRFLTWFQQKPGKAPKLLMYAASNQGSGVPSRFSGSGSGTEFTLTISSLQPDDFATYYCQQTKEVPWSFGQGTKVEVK turned out to be 102 % of WT
